Assay: Solubility in water of salts (and free bases)
Format: physicochemical
Conditions: Table 2, salts of compounds I; temp. by No. [°C]: 1 25.5; 2 23.0; 3 22.4; 4 22.4; 5 22.0; 6 25.0; 7 25.5; 8 25.5; 9 25.5; 10 23.5; 11 23.5; 12 25.0; 13 24.0; 14 23.0; 15 22.0; 16 24.5; 17 22.5; 18 22.0
Where a name gives a salt, the structure may show the parent alone.
Provide the reported 1 part by mass dissolves in ... parts by H2O of each item.
One number for each entry, in parts by H2 O.

Field: example entries. Status: answers known.
compound	endpoint result
CN(C(=O)c1cnc(N2CCNC2=O)nc1N)c1cccc(C(F)(F)F)c1 [Example 64, hydrochloride]	19.8
CC(C)N(C(=O)c1cnc(N2CC(C)(C)NC2=O)nc1N)c1ccc(F)c(C(F)(F)F)c1	28.6
CC1(C)CN(c2ncc(C(=O)N(CC3CC3)c3cccc(C(F)(F)F)c3)c(N)n2)C(=O)N1	13.1
CC(C)CC(C)N(C(=O)c1cnc(N2CC(C)(C)NC2=O)nc1N)c1cccc(C(F)(F)F)c1 (centres unmarked)	15.3

# ---- query compound ----
Recorded 1 part by mass dissolves in ... parts by H2O for CC(C)CN(C(=O)c1cnc(N2CC(C)NC2=O)nc1N)c1cccc(C(F)(F)F)c1 (centres unmarked) , please?
24.7

Origin of values: patent US5571816A
